Data credit: PubChem BioAssay AID493035

Recorded inhibition by entry
Target: Perilipin-5 (Homo sapiens) + 1-acylglycerol-3-phosphate O-acyltransferase ABHD5 (Homo sapiens) (UniProt Q00G26+Q8WTS1)
Sequence (Q00G26 whole entry, looked up): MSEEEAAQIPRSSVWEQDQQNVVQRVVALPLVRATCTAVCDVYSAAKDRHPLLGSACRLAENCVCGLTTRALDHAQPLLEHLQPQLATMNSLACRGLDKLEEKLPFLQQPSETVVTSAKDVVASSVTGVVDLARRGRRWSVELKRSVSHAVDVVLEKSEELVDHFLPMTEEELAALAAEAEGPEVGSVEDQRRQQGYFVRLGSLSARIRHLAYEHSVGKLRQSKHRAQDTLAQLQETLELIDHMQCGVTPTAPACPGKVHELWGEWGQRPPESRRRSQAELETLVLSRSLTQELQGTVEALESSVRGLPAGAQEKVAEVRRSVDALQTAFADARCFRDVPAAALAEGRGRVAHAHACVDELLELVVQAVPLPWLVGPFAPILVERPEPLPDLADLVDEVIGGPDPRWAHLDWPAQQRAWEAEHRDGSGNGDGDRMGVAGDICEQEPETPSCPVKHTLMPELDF
Sequence (Q8WTS1 whole entry, looked up): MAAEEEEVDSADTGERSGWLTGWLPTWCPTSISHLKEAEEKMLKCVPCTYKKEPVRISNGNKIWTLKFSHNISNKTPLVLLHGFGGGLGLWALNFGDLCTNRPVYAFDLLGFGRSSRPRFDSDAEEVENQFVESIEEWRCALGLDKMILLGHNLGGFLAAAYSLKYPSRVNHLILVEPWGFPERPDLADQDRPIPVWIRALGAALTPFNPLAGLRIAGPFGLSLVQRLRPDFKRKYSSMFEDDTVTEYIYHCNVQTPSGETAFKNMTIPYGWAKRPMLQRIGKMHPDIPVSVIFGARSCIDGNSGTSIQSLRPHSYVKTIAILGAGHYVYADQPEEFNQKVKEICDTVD
Assay: blockers of ABHD5 binding to perilipin-5 – cell lysate, split luciferase complementation, luminescence, NIH validation set, pilot screen (AID 493035);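 also: 0% = DMSO only wells while the 100% control is not stated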
Settings: split G. princeps luciferase complementation, lysates, 4 h; at 7.9 µM, hits give high values
Among all 2,000 compounds or so, about 45 (2%) were called active. The sample as a whole holds a higher share of actives than the screen did.
The figure you give is taken to be in %; do not add the unit.

Field: example entries. Status: answers known.
{"columns": ["molecule", "measured"],
 "data": [
  ["CC1(C)c2ccccc2N2CC(=O)NC21/C=C/c1ccco1 (configuration not stated)", 50.2],
  ["CCCCC/C=C\\C[C@H](O)/C=C/c1cccc(C[C@H](O)CCCCO)n1", 62.8],
  ["O=C(/C=C/c1ccco1)N1CCN(c2ccccc2)CC1", 2.96],
  ["CCCCc1oc2ccccc2c1C(=O)c1cc(I)c(OCCN(CC)CC)c(I)c1", -3.91]
]}

Input line: What measured inhibition goes with COc1ccc(CN2CCCCC2C(=O)Nc2ccc(OC)c(OCC(C)C)c2)cc1OC (configuration not stated) ?
Output line: -8.58

Input line: // query inhibition value for entry O=C(O)C1Cc2ccccc2CN1S(=O)(=O)c1ccccc1 (configuration not stated)
Output line: 3.15

Input line: I am curious: what inhibition value has been reported for O=C(/C=C/Sc1ccccc1)c1ccccc1 ?
Output line: 85.6

Input line: Item under review: CC(=O)OC(CC(=O)O)C[N+](C)(C)C (configuration not stated) . Reported inhibition?
Output line: -14.8

###

Measured inhibition, listed per entry for reference.
Biological target: Perilipin-5 (Homo sapiens) + 1-acylglycerol-3-phosphate O-acyltransferase ABHD5 (Homo sapiens) (UniProt Q00G26+Q8WTS1)
Experiment: blockers of ABHD5 binding to perilipin-5 – cell lysate, split luciferase complementation, luminescence, NIH validation set, pilot screen (AID 493035);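 also: 0% = DMSO only wells while the 100% control is not stated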
Settings: split G. princeps luciferase complementation, lysates, 4 h; at 7.9 µM, hits give high values
Hit rate of the full screen: of about 2,000 compounds, about 45 (2%) were called active. The list comes from a sample in which actives are over-represented; it also holds close analogues and randomly drawn compounds.
All answers are understood in %, so give the number only.

Known inhibition results, listed for orientation:
{"columns": ["molecularString", "outcomeMeasure", "measured"],
 "data": [
  ["c1cc(-c2ccncc2)ccn1", "inhibition", -3.86],
  ["C/C(=N\\NC(=O)c1ccccc1[N+](=O)[O-])c1ccc(Br)s1", "inhibition", -7.54],
  ["COc1ccc(/C=C\\C(=O)c2c(O)ccc3c(C)cc(=O)oc23)cc1OC", "inhibition", 59.1],
  ["COc1ccc(-c2nc(NC(C)=O)sc2-c2ccc(OC)cc2)cc1", "inhibition", 2.96]
]}

Input line: Endpoint output: inhibition of CC(=Nc1ccccc1)C1=C(O)CCCC1=O . Value?
Output line: 0.34

###

Target: Perilipin-5 (Homo sapiens) + 1-acylglycerol-3-phosphate O-acyltransferase ABHD5 (Homo sapiens) (UniProt Q00G26+Q8WTS1)
Experiment: blockers of ABHD5 binding to perilipin-5 – cell lysate, split luciferase complementation, luminescence, NIH validation set, pilot screen (AID 493035);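 also: 0% = DMSO only wells while the 100% control is not stated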
Settings: split G. princeps luciferase complementation, lysates, 4 h; at 7.9 µM
Screen size: about 2,000 compounds; about 45 (2%) were called active.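 Rule for the calls: active = inhibition above the mean of all tested compounds plus 3 SD (cut at about 49% in these data); inactive = the rest.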 For the sample, actives were picked, then their nearest neighbours and some compounds at random.
Respond only with the outcome that fits, drawn from T = active, F = inactive

Answered cases to consult:
{"columns": ["molecule", "discreteLabel"],
 "data": [
  ["CN(C)CCCN1c2ccccc2Sc2ccccc21", "F"],
  ["CN1/C(=C\\C=Nc2ccccc2)C(C)(C)c2ccccc21", "F"],
  ["O=C(c1ccccc1F)c1cc2c(cc1[N+](=O)[O-])OCCO2", "F"]
]}

Input line: Answer briefly: the call reported for O=C1CCCCCN1Cc1ccccc1 in this assay.
Output line: F

Input line: Test call for this molecule, please: O=C1C2C3C=CC(C4CC34)C2C(=O)N1/N=C/c1ccc(-c2ccc([N+](=O)[O-])cc2)o1 (centres undefined)
Output line: F

Input line: Look up the recorded call for O=C(O)c1cc(-c2ccccc2)nc2ccccc12 in this test.
Output line: F

Input line: Record request — test call for CC(C)(C)N1NC2(CCCCC2)NC1=S
Output line: F

Input line: Identify the outcome logged in this assay for the molecule shown: COCCOC(=O)C1=C(N)OC2=C(C(=O)CCC2)C1c1cccnc1 (centres undefined)
Output line: F

Input line: Each molecule tested received a call. Report the one for CC(CN1c2ccccc2Sc2ccccc21)N(C)C (centres undefined) .
Output line: F

Input line: In this assay, the call recorded for Cn1c(=O)c(C(=O)NCCO)c(O)c2ccccc21 was what?
Output line: F

Input line: How was COc1cc2c(cc1OC)/C(=C/c1ccc(Cl)cc1)C(=O)OC2 classified in this test?
Output line: F

Input line: Identify the outcome logged in this assay for the molecule shown: Nc1ccc(-c2nc3ncccc3o2)c(Cl)c1
Output line: F

Input line: I'd appreciate the recorded outcome for COc1ccc(O)c(C(=O)/C=C/c2cc3ccccc3o2)c1 from this test.
Output line: T

Input line: Give the logged outcome of this assay for the following molecule: CCN(CC)C(=S)SSC(=S)N(CC)CC
Output line: T

Input line: Record request — test call for CCCOc1ccc(-c2cc(C(=O)NCC3CCCO3)c3ccccc3n2)cc1 (centres undefined)
Output line: F

Input line: In this assay, the call recorded for COc1cc(/C=C(\C#N)C(=O)N2CCc3ccccc32)ccc1O was what?
Output line: T

Input line: Could you please tell me the result logged for COc1ccc([C@H]2[C@H](C(=O)OC(C)(C)C)N3N=Cc4ccccc4C3C23C(=O)c2ccccc2C3=O)cc1OC (some centres undefined) in this assay?
Output line: F

Input line: Hi, sorry to bother you, what did the test record for CC12CCC(C(=O)N3CCc4ccccc43)(CC1=O)C2(C)C (centres undefined) ?
Output line: F

Input line: Check the results log: what was the call for COc1ccc(-c2cc(C(=O)N3CCOCC3)c3cc(C)ccc3n2)cc1 ?
Output line: F

Input line: Answer briefly: the call reported for COC(=O)c1cc(-c2ccc(C)o2)nc2ccccc12 in this assay.
Output line: T
